Reference source for all entries: patent US8431596B2

# Target Of Assay: AXL (human catalytic domain) (Homo sapiens)
# Construct: purchased Upstate Ltd. 14-512
# Assay Info: AXL (human catalytic domain) Enzyme Activity Assay (IMAP fluorescence polarisation)
# Type: biochemical
# Stated Conditions: first data set; recombinant AXL isoform 1 aa473-894, 150 μM ATP
pIC50: −log10 of the molar value.
Result Type: pIC50

compound O=C(Nc1nc2cccc(-c3ccc4cc[nH]c4c3)n2n1)C1CC1 , pIC50 observed: > 6.00

Item: CCCn1cc(-c2cccc3nc(NC(=O)C4CC4)nn23)cn1 | pIC50: 5.00 to 6.00

Memo: CC(=O)Nc1ccc(-c2cccc3nc(NC(=O)C4CC4)nn23)cc1 , reported pIC50: 5.00 to 6.00

Lookup result for O=C(Nc1nc2cccc(-c3ccc4[nH]ccc4c3)n2n1)C1CC1 ; measured pIC50: > 6.00

# pIC50 (compound: COc1ccc(-c2cccc3nc(Nc4ccc(OCCNCCN(C)C)cc4)nn23)cc1 ) is > 6.00

response.value for O=C(Nc1nc2cccc(-c3cccc(F)c3)n2n1)C1CC1 (field: pIC50) = 5.00 to 6.00

pIC50 reported for this compound COc1cc(Nc2cccc3nc(NC(=O)C4CC4)nn23)cc(OC)c1OC : 5.00 to 6.00

pIC50 reading for CN1CCCC1CCNc1cccc2nc(NC(=O)C3CC3)nn12 (centres unmarked) : 5.00 to 6.00

Given item c1cc(-c2ccc3c(c2)OCCO3)n2nc(Nc3ccc(N4CCNCC4)cc3)nc2c1 , the value recorded as its pIC50 is > 6.00

Lab note: c1cc(-c2ccc3occc3c2)n2nc(Nc3ccc(OCCN4CCCC4)cc3)nc2c1 gave pIC50 of > 6.00

// recorded pIC50 for CN(C)c1ccc(-c2cccc3nc(NC(=O)C4CC4)nn23)cc1 : > 6.00

For this compound ( COc1ccc(-c2cccc3nc(NC(C)=O)nn23)cc1 ), measured pIC50 is 5.00 to 6.00

Form field pIC50, entry CNCCOc1cccc(Nc2nc3cccc(-c4ccc5occc5c4)n3n2)c1 : > 6.00

Lab book: pIC50 of COc1ccc(-c2cccc3nc(Nc4ccc(OCCNCc5ccccn5)cc4)nn23)cc1 noted as > 6.00

Looking up c1cc(-c2ccc3c(c2)OCO3)n2nc(Nc3ccc(OCCN4CCCC4)cc3)nc2c1 , I found its pIC50 recorded as > 6.00

Lab note: measured pIC50 of COc1cc(-c2cccc3nc(NC(=O)C4CC4)nn23)ccc1O was 5.00 to 6.00

pIC50 reading for Cc1c(-c2cccc3nc(NC(=O)C4CC4)nn23)cnn1-c1ccccc1 : 5.00 to 6.00

CN(C)C/C=C/c1cccc(Nc2nc3cccc(-c4ccc5c(c4)OCCO5)n3n2)c1 has a reported pIC50 of > 6.00

The compound identified as COc1ccc(Nc2cccc3nc(NC(=O)C4CC4)nn23)cc1 registered its pIC50 at 5.00 to 6.00

For record O=C(Nc1nc2cccc(-c3ccn[nH]3)n2n1)C1CC1 the listed pIC50 is 5.00 to 6.00

----------
# Target Of Assay: AXL (human catalytic domain) (Homo sapiens)
# Construct: purchased Upstate Ltd. 14-512
# Sequence (P30530 473-894): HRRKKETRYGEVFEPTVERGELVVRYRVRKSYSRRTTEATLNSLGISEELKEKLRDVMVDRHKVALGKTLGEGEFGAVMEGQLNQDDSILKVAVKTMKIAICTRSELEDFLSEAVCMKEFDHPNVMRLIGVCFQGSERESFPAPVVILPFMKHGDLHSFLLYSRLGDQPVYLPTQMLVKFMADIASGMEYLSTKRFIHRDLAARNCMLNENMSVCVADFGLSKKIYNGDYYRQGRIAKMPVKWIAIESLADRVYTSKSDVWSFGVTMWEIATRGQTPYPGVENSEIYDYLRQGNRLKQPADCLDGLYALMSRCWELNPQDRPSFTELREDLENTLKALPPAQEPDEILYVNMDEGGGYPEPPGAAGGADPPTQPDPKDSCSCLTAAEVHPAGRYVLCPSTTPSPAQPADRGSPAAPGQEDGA
# Assay Info: AXL (human catalytic domain) Enzyme Activity Assay (IMAP fluorescence polarisation)
# Assay type: biochemical
# Stated Conditions: further data set (WW-001 through WW-169, XX-001 through XX-469, YY-001 through YY-016, ZZ-001 through ZZ-003); 150 μM ATP
pIC50: −log10 of the molar value.
Result Type: pIC50

Form field, pIC50 with AXL (human catalytic domain) (Homo sapiens), item CN(C)CCOc1ccc(Nc2nc3cccc(-c4ccc5c(c4)OCO5)n3n2)cc1 : 6.00 to 7.00

I looked up CC(C)(C)OC(=O)Nc1ccc(-c2cccc3nc(NC(=O)C4CC4)nn23)cc1 and its pIC50 for AXL (human catalytic domain) (Homo sapiens) was 5.00 to 6.00

Entry O=C(CN1CCCCC1)Nc1cccc(Nc2nc3cccc(-c4ccc5c(c4)OCCO5)n3n2)c1 under AXL (human catalytic domain) (Homo sapiens) had pIC50 of 6.00 to 7.00

pIC50 of CC(C)CCn1cc(-c2cccc3nc(NC(=O)C4CC4)nn23)cn1 , assay on AXL (human catalytic domain) (Homo sapiens), is 5.00 to 6.00

Measured on AXL (human catalytic domain) (Homo sapiens), O=C(Nc1nc2cccc(-c3ccc4[nH]ccc4c3)n2n1)C1CC1 has a documented pIC50 of 6.00 to 7.00

Reported AXL (human catalytic domain) (Homo sapiens) pIC50 for item c1cc(-c2ccc3c(c2)OCCO3)n2nc(Nc3cnc(OCCN4CCCC4)nc3)nc2c1 was 6.00 to 7.00

Item: O=C(CCN1CCCC1)Nc1ccc(Nc2nc3cccc(-c4ccc5c(c4)OCCO5)n3n2)cc1 | System: AXL (human catalytic domain) (Homo sapiens) | pIC50: 6.00 to 7.00

// returns pIC50 for COc1ccc(-c2cccc3nc(NCC4CC4)nn23)cc1 with AXL (human catalytic domain) (Homo sapiens); value = 6.00 to 7.00

Let me check: COc1cccc(-c2cccc3nc(NC(=O)C4CC4)nn23)c1 , system AXL (human catalytic domain) (Homo sapiens), measured pIC50 is 5.00 to 6.00

The observed pIC50 for Cc1cc(-c2ccc3c(c2)OCCO3)n2nc(Nc3ccc(OCCN4CCCC4)cc3)nc2c1 when tested with AXL (human catalytic domain) (Homo sapiens) stands at 6.00 to 7.00

GET /values?item= NCc1cccc(-c2cccc3nc(Nc4ccc(OCCN5CCCC5)cc4)nn23)c1 &system= AXL (human catalytic domain) (Homo sapiens) returns pIC50: 5.00 to 6.00

For CCNCCOc1ccc(Nc2nc3cccc(-c4ccc5c(c4)OCCO5)n3n2)cc1 on AXL (human catalytic domain) (Homo sapiens), measured pIC50 was ≥ 7.00

Value sought: pIC50, system AXL (human catalytic domain) (Homo sapiens), item O=C(Nc1nc2cccc(-c3ccc([N+](=O)[O-])cc3)n2n1)C1CC1 . Result: 5.00 to 6.00

// pIC50 (AXL (human catalytic domain) (Homo sapiens)) for COc1ccc(-c2cccc3nc(Nc4ccc(C(=O)NCCN(C)C)cc4)nn23)cc1 = 5.00 to 6.00

AXL (human catalytic domain) (Homo sapiens) assay, compound Nc1ccc(-c2cccc3nc(Nc4ccc(OCCN5CCCC5)cc4)nn23)cc1 , recorded pIC50 = 6.00 to 7.00

// returns pIC50 for Cc1csc(SCCn2cc(-c3cccc4nc(Nc5ccc(OCCN6CCCC6)cc5)nn34)cn2)n1 with AXL (human catalytic domain) (Homo sapiens); value = 6.00 to 7.00

Value sought: pIC50, system AXL (human catalytic domain) (Homo sapiens), item O=C(CSc1ccc(Nc2nc3cccc(-c4ccc5c(c4)OCCO5)n3n2)cc1)N1CCCC1 . Result: 5.00 to 6.00

Known value: AXL (human catalytic domain) (Homo sapiens) pIC50 of the compound FC(F)(F)c1ccccc1-c1cccc2nc(Nc3ccc(OCCN4CCCC4)cc3)nn12 equals 5.00 to 6.00

----------
For each record, write down the corresponding pIC50.
# Target Of Assay: AXL (human catalytic domain) (Homo sapiens, UniProt P30530)
# Construct: purchased Upstate Ltd. 14-512
# Assay Info: AXL (human catalytic domain) Enzyme Activity Assay (IMAP fluorescence polarisation)
# Assay type: biochemical
# Stated Conditions: further data set (WW-001 through WW-169, XX-001 through XX-469, YY-001 through YY-016, ZZ-001 through ZZ-003); 150 μM ATP
# Method: Biological Methods AXL (human catalytic domain) Enzyme Activity Assay Reagents Kinase Assay Reaction Buffer: This consisted of 20 mM HEPES pH 7.0, 10 mM MgCl2, 1 mM DTT, […], 0.01% Triton X100 (v/v), and 0.01% BSA (w/v). All buffer components were purchased from Sigma-Aldrich at reagent grade or higher. […] ATP: Supplied by Sigma (product code A-7699). […] Final ATP concentration in the assay was 150 μM; this concentration represents the KM.ATP for this enzyme calculated in this assay. […]
pIC50: −log10 of the molar value.

The reported value for COc1c(C)cc(-c2cccc3nc(NC(=O)C4CC4)nn23)cc1C [WW-095] in terms of pIC50 is 5.00 to 6.00

Per the records, this molecule ( CCN(CC)CCOc1ccc(Nc2nc3cccc(-c4ccc5c(c4)OCCO5)n3n2)cn1 [XX-162] ) has pIC50 equal to ≥ 7.00

Lookup result for CCN(CC)CCOc1cc(Nc2nc3cccc(-c4ccc(OC)cc4)n3n2)ccc1C [XX-415] ; measured pIC50: 6.00 to 7.00

GET /value?item= CN1CCN(C(=O)c2ccc(Nc3nc4cccc(-c5ccc6c(c5)OCCO6)n4n3)cc2)CC1 [XX-111] &field=pIC50 returns 6.00 to 7.00

Reported pIC50 ( FC(F)(F)c1ccccc1COc1cccc(-c2cccc3nc(Nc4ccc(OCCN5CCCC5)cc4)nn23)c1 [XX-402] ) = 5.00 to 6.00

Lab note: c1cc(-c2ccc3c(c2)OCCO3)n2nc(Nc3ccc(OCCN4CCCC4)cc3)nc2c1 [XX-018] gave pIC50 of 6.00 to 7.00

Query CN(C)CCNC(=O)c1ccc(-c2cccc3nc(NC(=O)C4CC4)nn23)cc1 [WW-009] yields pIC50 of 5.00 to 6.00

Query Cc1cc(CNc2cccc(-c3cccc4nc(Nc5ccc(OCCN6CCCC6)cc5)nn34)c2)n(C)n1 [XX-262] yields pIC50 of 5.00 to 6.00
